# System: Mus musculus
# test details: Toxicity in mouse assessed as tail bleeding time at 200 mg/kg, po after 90 mins
# Assay type: organism-based
# Parameters: dose 200 mg/kg, route oral
# condition info: in vivo, 1.5 h
measured endpoint: Activity (s)
Express it in s; write the number only.

Item "C[C@@H]1O[C@H](c2ccc(Cl)cc2)OC[C@H]1NC(=O)c1ccccc1" was tested on Mus musculus; the reported Activity is 118.6

Item "O=C(Cc1ccccc1)N[C@H]1CO[C@@H](c2ccc([N+](=O)[O-])cc2)OC1" was tested on Mus musculus; the reported Activity is 117.7

Item "C[C@@H]1O[C@@H](c2cccc([N+](=O)[O-])c2)OC[C@H]1NC(=O)Cc1ccccc1" was tested on Mus musculus; the reported Activity is 118.6

Item "C[C@@H]1O[C@H](c2ccc([N+](=O)[O-])cc2)OC[C@H]1NC(=O)Cc1ccccc1" was tested on Mus musculus; the reported Activity is 117.2

Item "C[C@@H]1O[C@H](c2ccccc2)OC[C@H]1NC(=O)Cc1ccccc1" was tested on Mus musculus; the reported Activity is 117.9

Item "O=C(N[C@H]1CO[C@H](c2cccc([N+](=O)[O-])c2)OC1)c1ccccc1" was tested on Mus musculus; the reported Activity is 118.7

Item "O=C(Cc1ccccc1)N[C@H]1CO[C@H](c2cccc([N+](=O)[O-])c2)OC1" was tested on Mus musculus; the reported Activity is 118.6

Item "C[C@H]1O[C@@H](c2ccc(Cl)cc2)OC[C@H]1NC(=O)Cc1ccccc1" was tested on Mus musculus; the reported Activity is 119

Item "C[C@@H]1O[C@H](c2cccc([N+](=O)[O-])c2)OC[C@H]1NC(=O)c1ccccc1" was tested on Mus musculus; the reported Activity is 118.2

Item "O=C(N[C@H]1CO[C@H](c2ccc([N+](=O)[O-])cc2)OC1)c1ccccc1" was tested on Mus musculus; the reported Activity is 118.9

Item "C[C@@H]1O[C@@H](c2ccccc2)OC[C@H]1NC(=O)Cc1ccccc1" was tested on Mus musculus; the reported Activity is 117.9
